- system_name: T1, Cynomolgus CXCR2 (cynomolgus, UniProt Q28519 3-353 (rhesus entry))
- T1 chain: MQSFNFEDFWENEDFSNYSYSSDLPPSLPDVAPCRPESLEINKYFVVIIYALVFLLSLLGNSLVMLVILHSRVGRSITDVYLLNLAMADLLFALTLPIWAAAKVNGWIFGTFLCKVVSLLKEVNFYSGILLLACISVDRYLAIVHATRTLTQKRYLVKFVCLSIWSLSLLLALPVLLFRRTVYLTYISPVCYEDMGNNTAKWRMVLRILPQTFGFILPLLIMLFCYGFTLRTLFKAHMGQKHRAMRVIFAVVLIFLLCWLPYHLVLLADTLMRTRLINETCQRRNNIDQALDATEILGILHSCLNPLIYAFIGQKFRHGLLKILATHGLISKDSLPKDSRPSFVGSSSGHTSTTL
- test_name: cell-based or functional assay
measurement_label: FLIPR IC50 (GRO-α induced calcium release) (nM)
Give the value, in units of nM, as a plain number.

Consider the following illustrative entries.
CXCR20029 (other, Biparatopic: two VHH joined by a GlySer linker; also called 163E3-35GS-54B12; not shown: C-terminal c-myc tag and His6 tag coded by pAX100) EVQLVESGGGLVQPGGSLRLSCVASGRIFSSNAMGWFRQAPGKEREFVAAITWRSGGSAYYADSAKGRFTISRDNAKNTVYLQMNSLKPEDTAVYYCAAGGSSWLSFPPDYWGQGTQVTVSSGGGGSGGGGSGGGGSGGGGSGGGGSGGGGSGGGGSEVQLVESGGGLVQAGGSLTLSCAVSGSTFRINTMGWYRRAPGKQRELVAARDRGGYINYVDSVKGRFTVSRDNAKPTMYLQMNSLKPEDTAVYYCHAGTQDRTGRNFDRWGQGTQVTVSS :: 10.1
CXCR20030 (other, Biparatopic: two VHH joined by a GlySer linker; also called 163D2-35GS-54B12; 163D2-54B12; not shown: C-terminal c-myc tag and His6 tag coded by pAX100) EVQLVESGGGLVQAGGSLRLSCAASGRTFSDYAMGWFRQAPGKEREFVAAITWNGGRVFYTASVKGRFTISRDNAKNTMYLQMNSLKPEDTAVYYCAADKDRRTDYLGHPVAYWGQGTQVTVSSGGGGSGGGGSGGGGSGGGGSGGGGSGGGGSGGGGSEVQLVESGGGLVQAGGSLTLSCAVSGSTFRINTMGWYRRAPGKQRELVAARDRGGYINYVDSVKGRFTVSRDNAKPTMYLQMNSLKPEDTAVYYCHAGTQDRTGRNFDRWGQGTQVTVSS :: 6.36
CXCR20022 (VHH, Bivalent: two VHH joined by a GlySer linker; also called 163D2-35GS-163D2; not shown: C-terminal c-myc tag and His6 tag coded by pAX100) EVQLVESGGGLVQAGGSLRLSCAASGRTFSDYAMGWFRQAPGKEREFVAAITWNGGRVFYTASVKGRFTISRDNAKNTMYLQMNSLKPEDTAVYYCAADKDRRTDYLGHPVAYWGQGTQVTVSSGGGGSGGGGSGGGGSGGGGSGGGGSGGGGSGGGGSEVQLVESGGGLVQAGGSLRLSCAASGRTFSDYAMGWFRQAPGKEREFVAAITWNGGRVFYTASVKGRFTISRDNAKNTMYLQMNSLKPEDTAVYYCAADKDRRTDYLGHPVAYWGQGTQVTVSS :: 8.64
CXCR20036 (other, Biparatopic: two VHH joined by a GlySer linker; also called 54B12-35GS-163D2; 54B12-163D2; not shown: C-terminal c-myc tag and His6 tag coded by pAX100) EVQLVESGGGLVQAGGSLTLSCAVSGSTFRINTMGWYRRAPGKQRELVAARDRGGYINYVDSVKGRFTVSRDNAKPTMYLQMNSLKPEDTAVYYCHAGTQDRTGRNFDRWGQGTQVTVSSGGGGSGGGGSGGGGSGGGGSGGGGSGGGGSGGGGSEVQLVESGGGLVQAGGSLRLSCAASGRTFSDYAMGWFRQAPGKEREFVAAITWNGGRVFYTASVKGRFTISRDNAKNTMYLQMNSLKPEDTAVYYCAADKDRRTDYLGHPVAYWGQGTQVTVSS :: 4.27

From here, focus on the item given below.
Entry CXCR20026 (bispecific antibody, Biparatopic: two VHH joined by a GlySer linker; also called 163E3-35GS-127D1; 163E3-127D1; not shown: C-terminal c-myc tag and His6 tag coded by pAX100) EVQLVESGGGLVQPGGSLRLSCVASGRIFSSNAMGWFRQAPGKEREFVAAITWRSGGSAYYADSAKGRFTISRDNAKNTVYLQMNSLKPEDTAVYYCAAGGSSWLSFPPDYWGQGTQVTVSSGGGGSGGGGSGGGGSGGGGSGGGGSGGGGSGGGGSEVQLVESGGGLVQAGESLRLSCAASGSTFDFKVMGWYRQPPGKQREGVAAIRLSGNMHYAESVKGRFTISKANAKNTVYLQMNSLRPEDTAVYYCKVNIRGQDYWGQGTQVTVSS , FLIPR IC50 (GRO-α induced calcium release) reported as 9.1
